- target.under.test: T1, A199 N-terminal neo-epitope peptide AGQPLQE-Acp-C (SEQ ID NO:55) conjugated to BSA (human, not fully specified (residue 9); printed as AGQPLQE-Acp-C; also: C-terminal Cys conjugated to BSA carrier)
- T1 construct: BSA carrier
- T1 peptide: AGQPLQE[Ahx]C
- assay.details: direct ELISA after limiting dilution
Non-standard residues stand in square brackets, D forms with d. No end group written: not given here. Ahx = NCCCCCC(=O)O
assay.metric: binding result

binder | reported.value
38G9, monoclonal anti-A199 antibody (antibody, IgG1, V domains shown) VH: EVKLEESGGGLVQPGGSMKLSCVASGFTFSNYWMNWVRQSPEKGLEWVGEIKLKSNNYGTHYAESVKGRFTISRDDSKSSVYLQMNNLRAEDTGIYYCTRDTEVVAGAHWGQGTLVTVSA VL: NIMMTQSPSSLAVSAGEKVTMSCKSSQSVLYSSNQKNYLAWYQQKPGQSPKLLIYWASTRESGVPDRFTGSGSGTDFTLTISSVQAEDLAVYFCQQYLSSLTFGAGTKLELK | binds

Reference for the values: patent US20220242939A1
